read-out: Vascular cell adhesion molecule 1 (VCAM1), VCAM1 (gene 7412); experiment: BSK_CASM3C_VCAM1: BioMAP Diversity Plus: CASM3C Assay for Vascular cell adhesion molecule 1 (VCAM1) Biomarker Activity (AID 2283055); settings: primary human coronary artery smooth muscle cells; actives raise or lower the signal;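 also: VCAM-1 protein level quantified by ELISA on the cells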
Calls of active or inactive are those of the source. The calls were made as follows: active = hit-call score of the fitted dose curve at least 0.9, where 1 is the maximum; inactive = score below 0.9.
Mark one answer only. Choices: y for active, n for inactive

Worked examples, 6 molecules total:
# molecule, class
rows = [
    ("CC(Cc1ccc(OCC(=O)O)cc1)NCC(O)c1csc(C(F)(F)F)n1 (centres undefined)", "n"),
    ("O=C(O)C=CC(F)(C(F)(F)F)C(F)(F)F", "n"),
    ("O=[N+]([O-])c1ccccc1", "n"),
    ("OCC1CO1 (centres undefined)", "n"),
    ("Cc1ccc(N)cc1N", "n"),
    ("O=[N+]([O-])c1ccc(Cl)c(Cl)c1", "n"),
]

Turning now to a further molecule:
Returns: the outcome recorded for N#Cc1c(-c2ccc(Cl)cc2)[nH]c(C(F)(F)F)c1Br in this assay. y
